- test system: T1, PD-1 (UniProt Q15116 25-170, limits assumed)
- T1 construct: also called PD-1 protein
- T1 sequence (Q15116 25-170 limits assumed): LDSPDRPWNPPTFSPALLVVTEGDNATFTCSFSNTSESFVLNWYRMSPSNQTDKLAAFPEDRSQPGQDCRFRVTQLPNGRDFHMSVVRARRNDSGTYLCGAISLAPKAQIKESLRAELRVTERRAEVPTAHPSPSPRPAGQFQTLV
- method: SPR; set-up and antigen form not restated
Entries and their koff values follow.
Quick reminder: number only, in s⁻¹, skip the unit.

NB194-P29-z1 (Fc fusion, not shown: IgG4 constant region of vector pCDNA3.4-IgG4) heavy: QVQLVESGGGLVQPGGSLRLSCSASGHSFSIYDMGWFRQAADKERESVAVINFGRGTTYYAESVKGRFTISRDNAKNTVYLQMNSLRAEDTAVYSCGIDRRQYGLGIPPLADHWGQGSQVTVSS = 3.06e-05
NB194-P29-z4 (Fc fusion, not shown: IgG4 constant region of vector pCDNA3.4-IgG4) heavy: QVQLVESGGGLVQPGGSLRLSCTASGHSFSIYDMGWFRQAADKERESVAVINFGRGTTYYAESVKGRFTISRDNAKNTVYLQMNSLRAEDTAVYSCGIDRRQYGLGIPPLADHWGQGSQVTVSS = 2.61e-05
NB194-P29-z2 (Fc fusion, not shown: IgG4 constant region of vector pCDNA3.4-IgG4) heavy: QLQLVESGGGLVQPGGSLRLSCSASGHSFSIYDMGWFRQAADKERESVAVINFGRGTTYYAESVKGRFTISRDNAKNTVYLQMNSLRAEDTAVYSCGIDRRQYGLGIPPLADHWGQGSQVTVSS = 1.66e-05

Moving on to the next binder.
Q) // Input: NB194-P29-z6 (Fc fusion, not shown: IgG4 constant region of vector pCDNA3.4-IgG4) heavy: QVQLVESGGGLVQPGGSLRLSCSASGHSFSIYDMGWFRQAAGKERESVAVINFGRGTTYYAESVKGRFTISRDNAKNTVYLQMNSLRAEDTAVYSCGIDRRQYGLGIPPLADHWGQGSQVTVSS . Output its koff only.
A) 3.02e-05
